The measurements presented in this section are drawn from patent US20240425606A1.

Biological target: T1, hIL-1 IR (Homo sapiens, UniProt Q14626)
T1 sequence (Q14626 23-422): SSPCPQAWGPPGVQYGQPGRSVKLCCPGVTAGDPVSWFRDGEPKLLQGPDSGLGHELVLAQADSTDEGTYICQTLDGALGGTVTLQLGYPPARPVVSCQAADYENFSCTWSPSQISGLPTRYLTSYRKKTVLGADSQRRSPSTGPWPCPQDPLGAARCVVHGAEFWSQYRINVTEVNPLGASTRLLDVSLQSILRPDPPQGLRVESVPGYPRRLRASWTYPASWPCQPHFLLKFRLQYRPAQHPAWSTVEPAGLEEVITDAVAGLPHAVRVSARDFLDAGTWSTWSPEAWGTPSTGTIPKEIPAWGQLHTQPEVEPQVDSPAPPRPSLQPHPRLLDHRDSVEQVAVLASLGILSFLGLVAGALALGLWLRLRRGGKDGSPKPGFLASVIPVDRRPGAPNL
Assay: Alternate biolayer interferometry assay (AHC biosensors) ranking mAbs 16-32 against mAb5
Type: binding
Details: compared to mAb5
assay endpoint: qualitative assessment

molecule="mAb27: anti-IL-11Rα antibody; VH SEQ ID NO: 245, VL SEQ ID NO: 246; heavy chain Kabat position 31 variant of mAb5 (antibody, V domains shown, mAb27 VH Chain; mAb27 VL Chain, anti-IL-11Rα antibody; heavy chain Kabat position 31 variant of mAb5) VH: EVQLLESGGGLVQPGGSLRLSCAASGFTFSPYSMTWVRQAPGKGLEWVSSIVPYGDLTQYADSVKGRFTISRDNSKNTLYLQMNSLRAEDTAVYYCAKGPGWGSFDLWGRGTLVTVSS VL: DIQMTQSPSSLSASVGDRVTITCQASQDINNYLNWYQQKPGKAPKLLIYDASNLQTGVPSRFSGSGSGTDFTFTISSLQPEDIATYYCQQHESQSPTFGPGTKVDIK" measured_result=decreased
molecule="mAb31: anti-IL-11Rα antibody; VH SEQ ID NO: 253, VL SEQ ID NO: 254; heavy chain Kabat position 31 variant of mAb5 (antibody, V domains shown, mAb31 VH Chain; mAb31 VL Chain, anti-IL-11Rα antibody; heavy chain Kabat position 31 variant of mAb5) VH: EVQLLESGGGLVQPGGSLRLSCAASGFTFSVYSMTWVRQAPGKGLEWVSSIVPYGDLTQYADSVKGRFTISRDNSKNTLYLQMNSLRAEDTAVYYCAKGPGWGSFDLWGRGTLVTVSS VL: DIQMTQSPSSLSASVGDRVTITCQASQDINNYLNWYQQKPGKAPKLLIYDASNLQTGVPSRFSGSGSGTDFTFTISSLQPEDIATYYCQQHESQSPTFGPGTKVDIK" measured_result=improved/
molecule="mAb18: anti-IL-11Rα antibody; VH SEQ ID NO: 227, VL SEQ ID NO: 228; heavy chain Kabat position 31 variant of mAb5 (antibody, V domains shown, mAb18 VH Chain; mAb18 VL Chain, anti-IL-11Rα antibody; heavy chain Kabat position 31 variant of mAb5) VH: EVQLLESGGGLVQPGGSLRLSCAASGFTFSEYSMTWVRQAPGKGLEWVSSIVPYGDLTQYADSVKGRFTISRDNSKNTLYLQMNSLRAEDTAVYYCAKGPGWGSFDLWGRGTLVTVSS VL: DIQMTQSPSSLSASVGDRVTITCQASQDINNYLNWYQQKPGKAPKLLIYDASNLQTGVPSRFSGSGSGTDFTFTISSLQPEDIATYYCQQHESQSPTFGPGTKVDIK" measured_result=decreased
molecule="mAb21: anti-IL-11Rα antibody; VH SEQ ID NO: 233, VL SEQ ID NO: 234; heavy chain Kabat position 31 variant of mAb5 (antibody, V domains shown, mAb21 VH Chain; mAb21 VL Chain, anti-IL-11Rα antibody; heavy chain Kabat position 31 variant of mAb5) VH: EVQLLESGGGLVQPGGSLRLSCAASGFTFSHYSMTWVRQAPGKGLEWVSSIVPYGDLTQYADSVKGRFTISRDNSKNTLYLQMNSLRAEDTAVYYCAKGPGWGSFDLWGRGTLVTVSS VL: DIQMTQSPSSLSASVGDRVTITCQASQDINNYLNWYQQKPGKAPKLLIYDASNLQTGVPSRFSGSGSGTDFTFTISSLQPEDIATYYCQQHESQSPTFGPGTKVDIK" measured_result=improved/
